Hello, the source for this data is the supplement of paper PMC5908809, in case you need it.

tested on: KHYG-1 (IL-2 2.5 ng/mL); test: percent inhibition of viability; higher = more inhibition; settings: 72 h; 10 nM;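 also: normalised to DMSO-only wells as negative and benzethonium chloride as positive control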
QUANTITY NAME: percent inhibition of viability (%)
Write it as a number; the unit % goes unstated.

COMPOUND	percent inhibition of viability / %
Nc1ccn([C@@H]2O[C@H](CO)[C@@H](O)[C@@H]2O)c(=O)n1 [Cytarabine] (max concentration tested 10000 nM)	17.1
C[C@@H](Oc1cc(-n2cnc3ccc(CN4CCN(C)CC4)cc32)sc1C(N)=O)c1ccccc1C(F)(F)F (max concentration tested 10000 nM)	20.7

Now let's try a different one.
In: Read the entry O=C(Nc1cccnc1)N1CCC(Cc2cccc(Oc3ccc(C(F)(F)F)cn3)c2)CC1 [PF-3845] (max concentration tested 10000 nM) and write its reported percent inhibition of viability.
Out: -6.89
